The values you see were collected from patent US20220017615A1.

Recorded pKd, one value per entry.
# tgt: T1, His-tagged CD47 recombinant protein, CD47-His (human, UniProt Q08722 19-141, limits assumed)
# T1 construct: it is not restated for CD47-His; also called human CD47-His protein; antigen CD47-His; not shown: His tag
# measurementDescription: BLI (Octet Red 96), antibody on AHC sensor, CD47-His 100 nM
pKd: −log10 of the molar value.
metricName: pKd

{"binder": "c132D1E5 (antibody, V domains shown) VH: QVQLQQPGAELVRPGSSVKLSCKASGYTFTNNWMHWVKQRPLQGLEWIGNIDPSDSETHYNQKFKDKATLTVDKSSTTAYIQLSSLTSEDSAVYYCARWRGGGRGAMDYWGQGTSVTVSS VL: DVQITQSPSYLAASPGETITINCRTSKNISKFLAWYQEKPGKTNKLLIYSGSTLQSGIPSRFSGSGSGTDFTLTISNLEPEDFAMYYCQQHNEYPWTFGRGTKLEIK", "numericReadout": 9.01}
{"binder": "c51E2F11 (antibody, V domains shown) VH: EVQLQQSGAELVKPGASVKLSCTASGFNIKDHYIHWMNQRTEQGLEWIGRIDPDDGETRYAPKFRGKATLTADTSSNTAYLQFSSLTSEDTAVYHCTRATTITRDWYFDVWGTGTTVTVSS VL: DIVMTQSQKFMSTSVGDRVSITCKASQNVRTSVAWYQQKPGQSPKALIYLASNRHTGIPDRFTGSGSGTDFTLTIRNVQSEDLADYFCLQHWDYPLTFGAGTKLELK", "numericReadout": 8.62}
{"binder": "c4D10B11 (antibody, V domains shown) VH: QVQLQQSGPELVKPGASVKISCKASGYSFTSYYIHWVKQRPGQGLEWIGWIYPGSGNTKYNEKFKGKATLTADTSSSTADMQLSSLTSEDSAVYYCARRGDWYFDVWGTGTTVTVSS VL: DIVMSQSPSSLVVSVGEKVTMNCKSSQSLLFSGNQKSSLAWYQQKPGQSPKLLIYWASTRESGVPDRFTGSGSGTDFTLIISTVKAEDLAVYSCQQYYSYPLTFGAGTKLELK", "numericReadout": 8.97}
{"binder": "c54G8G6 (antibody, V domains shown) VH: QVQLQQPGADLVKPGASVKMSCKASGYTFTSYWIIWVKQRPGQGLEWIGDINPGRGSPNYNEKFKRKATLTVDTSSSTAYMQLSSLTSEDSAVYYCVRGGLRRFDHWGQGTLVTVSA VL: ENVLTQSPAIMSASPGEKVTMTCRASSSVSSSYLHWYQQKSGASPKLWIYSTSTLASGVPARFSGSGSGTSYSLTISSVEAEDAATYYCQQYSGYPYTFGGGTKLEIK", "numericReadout": 8.86}
{"binder": "c25E3B5 (antibody, V domains shown) VH: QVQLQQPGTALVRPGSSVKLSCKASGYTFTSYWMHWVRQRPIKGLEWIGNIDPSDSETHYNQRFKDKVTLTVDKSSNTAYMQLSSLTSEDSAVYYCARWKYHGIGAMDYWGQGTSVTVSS VL: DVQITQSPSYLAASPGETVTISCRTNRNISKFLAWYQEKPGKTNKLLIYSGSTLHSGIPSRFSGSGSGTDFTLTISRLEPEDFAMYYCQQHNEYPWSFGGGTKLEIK", "numericReadout": 8.43}
